system: SK-MEL-28; assay: NCI tumour cell line growth inhibition, 48 h
Active and inactive are the calls of the source. No stated cut-off is given here; in the data, active = GI50 up to about 1.1 µM and inactive = higher.
Lab note: assign the record to one of T = active, F = inactive

Reference set, count: 5
Query block: Can you look up the reported call for COC(=O)C(=O)C(C(=O)C(=O)Nc1ccc([N+](=O)[O-])cc1[N+](=O)[O-])c1nc2ccc(Cl)cc2nc1O (stereo unspecified) for me?
Result block: F

Query block: Can you look up the reported call for `O=C1/C(=N\NC(=S)Nc2ccc(Cl)cc2)c2cc([N+](=O)[O-])ccc2N1CN1CCOCC1` for me?
Result block: F

Query block: Can you look up the reported call for `O=S(=O)(c1ccccc1)[C@H]1[C@@H]2O[C@@H]2C[C@@H]1O` for me?
Result block: F

Query block: Can you look up the reported call for Cn1c(CCC2(C)Cc3ccccc3C(=O)O2)cc2ccccc2c1=O (stereo unspecified) for me?
Result block: F

Query block: Can you look up the reported call for O=C(O)CCC(C(=O)O)N1C(=O)C2C3CCC(C3)C2C1=O (stereo unspecified) for me?
Result block: F

Next:
Query block: Can you look up the reported call for `O=c1c2cc(Br)cc(Br)c2[nH]c(=S)n1-c1ccc(/N=N/c2ccc(O)c3cccnc23)cc1` for me?
Result block: F

Query block: Can you look up the reported call for `CNC(=O)c1ccc(C(=O)NCCCCCN(O)C(=O)CCC(=O)NCCCCCN(O)C(=O)CCC(=O)NCCCCCN(O)C(C)=O)c(O)c1O` for me?
Result block: F

Query block: Can you look up the reported call for `COc1cc(C=O)cc(/C=N/c2ccccn2)c1O` for me?
Result block: F

Query block: Can you look up the reported call for `NC(=O)CO/N=C1/C(=C2/C(=O)Nc3ccccc32)Nc2ccccc21` for me?
Result block: F

Query block: Can you look up the reported call for `C=C1CC[C@@H]2[C@](C)(COC(=O)CCC(=O)OC)CCC[C@@]2(C)[C@@H]1CCC1=CC(=O)OC1` for me?
Result block: F

Query block: Can you look up the reported call for `C1=N\CCNCC/N=C\c2ccc(cc2)OCc2cccc(n2)COc2ccc/1cc2` for me?
Result block: F

---

system: SK-OV-3; test: NCI tumour cell line growth inhibition, 48 h
Active and inactive are the calls of the source. Cut-off read from the data, not from the text of the source: active = GI50 up to about 1.1 µM and inactive = higher.
MEASURE: GI50

// below: answered compounds
Query block: Item CN(C)CC1CCCC(CN2CCCCC2)C1=O (stereo not drawn) has what recorded GI50?
Result block: > 62.7 µM (inactive)

Query block: Item `CCOC(=O)c1nc2cc(C(F)(F)F)ccc2nc1Nc1ccc(Cl)c(Cl)c1` has what recorded GI50?
Result block: 97.9 µM (inactive)

Next:
Query block: Item COc1cc2c(c(OC)c1)C(C)=NC(C)C2 (stereo not drawn) has what recorded GI50?
Result block: > 100 µM (inactive)

Query block: Item Cc1ccc([N+](=O)[O-])cc1S(=O)(=O)Nc1ccc(C2=NN(S(=O)(=O)c3cc([N+](=O)[O-])ccc3C)C(c3cccs3)C2)cc1 (stereo not drawn) has what recorded GI50?
Result block: 24.5 µM (inactive)

Query block: Item `C=C=C[P+](c1ccccc1)(c1ccccc1)c1ccccc1` has what recorded GI50?
Result block: 45.6 µM (inactive)

Query block: Item CCCCCCCCC(O)c1ccc(/C=C\C(O)CCCC(=O)O)s1 (stereo not drawn) has what recorded GI50?
Result block: > 100 µM (inactive)

Query block: Item `O=C(/C=C\c1cccc2ccccc12)c1ccc(F)cc1` has what recorded GI50?
Result block: 23.5 µM (inactive)

Query block: Item `CCOC(=O)CCSc1nc2ccc(I)cc2c(=O)n1Cc1ccccc1` has what recorded GI50?
Result block: > 69.8 µM (inactive)

---

tested on: DLD-1; assay: NCI tumour cell line growth inhibition, 48 h
Calls of active or inactive are those of the source. Rule as the data show it: active = GI50 up to about 1.1 µM and inactive = higher.
MEASURE: GI50

// below: answered compounds
Query block: Item `O=C(NNC(=O)c1cc(/C=C/c2cccc([N+](=O)[O-])c2)nc(S)n1)Nc1ccc(Cl)cc1` has what recorded GI50?
Result block: 20.2 µM (inactive)

Query block: Item COc1ccc(/C(=N/NC(N)=O)C2(O)C(=O)Nc3ccc([N+](=O)[O-])cc32)cc1 (stereo unspecified) has what recorded GI50?
Result block: 21.3 µM (inactive)

Query block: Item `CCCCCCCCCCCCNC(=S)OCCCC` has what recorded GI50?
Result block: > 100 µM (inactive)

Next:
Query block: Item C/C=C(\NC(=O)C(CCCCN)NC(=O)C(C)NC(=O)C1CSC(C)C(NC(=O)C2CSCC(NC(=O)C(C)NC(=O)C(N)C(C)CC)C(=O)NC(CCCCN)C(=O)NC(Cc3ccccc3)C(=O)NC(CC(C)C)C(=O)N2)C(=O)N2CCCC2C(=O)NCC(=O)N1)C(=O)NCC(=O)NC1CSCC2NC(=O)C(Cc3ccc(O)cc3)NC(=O)C(CSC=CNC2=O)NC(=O)C(CC(N)=O)NC(=O)C(Cc2ccccc2)NC1=O (stereo unspecified) has what recorded GI50?
Result block: > 100 µM (inactive)

Query block: Item `COc1ccccc1/C=C1\C(=O)N(C(=O)Cc2ccccc2)N=C1C` has what recorded GI50?
Result block: > 100 µM (inactive)

Query block: Item CC(=O)c1c(O)ccc2c1CC(CC=O)O2 (stereo unspecified) has what recorded GI50?
Result block: 32.7 µM (inactive)

Query block: Item COc1ccc2c(CN3CCCCC3CO)cc3cc(OC)c(OC)cc3c2c1 (stereo unspecified) has what recorded GI50?
Result block: 6.18 µM (inactive)

Query block: Item `O=C1CCCC(=O)N1CCc1c[nH]c2ccccc12` has what recorded GI50?
Result block: > 100 µM (inactive)

Query block: Item `Cc1nc(C(N)=S)sc1C(=O)CC(=O)C(=O)Nc1ccccc1[N+](=O)[O-]` has what recorded GI50?
Result block: > 100 µM (inactive)

Query block: Item `CC[N+](CC)(CC)Cc1cc2ccccc2n1C(=O)OC` has what recorded GI50?
Result block: > 100 µM (inactive)

Query block: Item `COc1cccc(C=O)c1C(=O)c1cc(O)ccc1O` has what recorded GI50?
Result block: 16.3 µM (inactive)

---

system: SF-268; test: NCI tumour cell line growth inhibition, 48 h
Active and inactive are the calls of the source. No stated cut-off is given here; in the data, active = GI50 up to about 1.1 µM and inactive = higher.
# GI50 per record follows

// below: answered compounds
Query block: Query for SF-268: what GI50 does the record show for `Nc1ccc(C(=O)N/C(=C\c2cccc([N+](=O)[O-])c2)c2nc3ccccc3[nH]2)cc1` ?
Result block: 21.8 µM (inactive)

Query block: Query for SF-268: what GI50 does the record show for COC(=O)c1ccc(C)cc1CC1Cc2c(C)cccc2C1=O (stereo not given) ?
Result block: 9.89 µM (inactive)

Next:
Query block: Query for SF-268: what GI50 does the record show for C#C[C@]1(O)CC[C@H]2[C@@H]3CCC4=C/C(=N/NC(=O)c5cccc6c(=O)c7ccccc7[nH]c56)CCC4[C@H]3CC[C@@]21C (stereo not given in full) ?
Result block: > 100 µM (inactive)

Query block: Query for SF-268: what GI50 does the record show for O=C(O)C1(C(O)c2ccccc2)SCCCS1 (stereo not given) ?
Result block: > 10 µM (inactive)

Query block: Query for SF-268: what GI50 does the record show for COC(=O)C1CC2C=CC=CC(=O)C2(C)C1 (stereo not given) ?
Result block: 37.3 µM (inactive)

Query block: Query for SF-268: what GI50 does the record show for `CO/N=C(\C(=O)[N-]n1cn[n+](CC(=O)OC(C)(C)C)c1)c1csc(NC(c2ccccc2)(c2ccccc2)c2ccccc2)n1` ?
Result block: > 10 µM (inactive)

---

system: SNB-19; assay: NCI tumour cell line growth inhibition, 48 h
Calls of active or inactive are those of the source. No stated cut-off is given here; in the data, active = GI50 up to about 1.1 µM and inactive = higher.
# GI50 per record follows

// below: answered compounds
Query block: Item `C[C@]12CC[C@@H]3c4ccc(O)cc4CC[C@H]3[C@@H]1C/C(=C\c1ccncc1)C2=O` has what recorded GI50?
Result block: 38.5 µM (inactive)

Query block: Item `Cc1nc(C(N)=S)sc1C(=O)CC(=O)C(=O)Nc1ccccc1[N+](=O)[O-]` has what recorded GI50?
Result block: > 100 µM (inactive)

Query block: Item `COc1cc2c(cc1OC)C(=O)Cc1ccc(OC)c(OC)c1CN(C)CC2` has what recorded GI50?
Result block: > 100 µM (inactive)

Query block: Item `CC1=C(c2cc(C(=O)Nc3nccs3)nc(NC#N)n2)Sc2ccccc2N1` has what recorded GI50?
Result block: > 100 µM (inactive)

Query block: Item CC(=O)c1cc(CC2Cc3cc4c(cc3C2=O)CCC4)cc2c1CCC2 (stereo not drawn) has what recorded GI50?
Result block: 78 µM (inactive)

Next:
Query block: Item `Cc1ccc(-c2c(N)[n+]([O-])c3ccccc3[n+]2[O-])cc1` has what recorded GI50?
Result block: 12.7 µM (inactive)

Query block: Item C=CCN(c1cc(OC)c2c(c1[N+](=O)[O-])C(C)(SC)C(=O)N2)S(C)(=O)=O (stereo not drawn) has what recorded GI50?
Result block: 96.6 µM (inactive)

Query block: Item CC12CC[C@H](O)C(C)(C)[C@H]1CC[C@](C)(O)C2COc1ccc2ccc(=O)oc2c1 (stereo partly drawn) has what recorded GI50?
Result block: > 100 µM (inactive)

Query block: Item `O=S(=O)(c1ccccc1)[C@H]1[C@@H]2O[C@@H]2C[C@@H]1O` has what recorded GI50?
Result block: > 100 µM (inactive)

Query block: Item CN1c2ccccc2N(C)C2C1N(C)c1ccccc1N2C (stereo not drawn) has what recorded GI50?
Result block: 18.8 µM (inactive)

Query block: Item CC(=O)OCC1OC(N2C(=O)NC(=O)C3C=C4CCCCC4=CC32)C(OC(C)=O)C1OC(C)=O (stereo not drawn) has what recorded GI50?
Result block: > 100 µM (inactive)

Query block: Item COC(=O)C1C2C=CC(C2)N1S(=O)(=O)c1ccccc1 (stereo not drawn) has what recorded GI50?
Result block: > 100 µM (inactive)

Query block: Item COC(=O)C(Cc1nc2ccc(Cl)cc2nc1O)/C(=N/NC(N)=O)C(=O)Nc1ccc(Cl)cc1 (stereo not drawn) has what recorded GI50?
Result block: > 100 µM (inactive)

The measurements presented in this section are drawn from ChEMBL document CHEMBL1201862.
